B1: Gamma-crystallin S, residues 96 to 176; numbered along this chain, P22914 (parent)
chain: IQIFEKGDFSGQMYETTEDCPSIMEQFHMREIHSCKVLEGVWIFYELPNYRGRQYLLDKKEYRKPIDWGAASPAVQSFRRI

Variants of: B1
protocol description: abundance fitness (aPCA) (normalised: wild type 0, dead -1); higher = more abundant; growth selection in yeast, the domain comes from the species named
settings: Homo sapiens
assay readout: abundance fitness

L56W ... 0.047
F9P ... -0.481
I3S ... -0.931
F9Q ... 0.027
W68G ... -0.139
P21M ... -0.057

Exercise: GET /values?readout=abundance fitness&item= I81M
Key: -0.31

Exercise: Next entry: K59E
Key: -0.31

Exercise: Next entry: S72W
Key: 0.007

Exercise: Next entry: L47V
Key: -0.667

Exercise: Next entry: Y55S
Key: -0.437

Exercise: Next entry: Y45F
Key: -0.04

Exercise: Next entry: Y50N
Key: -0.567

Exercise: Next entry: E18F
Key: -0.007
